Target: ROCK-II (h, amino acids 11-552) (Homo sapiens (Human))
Sequence (O75116 11-552): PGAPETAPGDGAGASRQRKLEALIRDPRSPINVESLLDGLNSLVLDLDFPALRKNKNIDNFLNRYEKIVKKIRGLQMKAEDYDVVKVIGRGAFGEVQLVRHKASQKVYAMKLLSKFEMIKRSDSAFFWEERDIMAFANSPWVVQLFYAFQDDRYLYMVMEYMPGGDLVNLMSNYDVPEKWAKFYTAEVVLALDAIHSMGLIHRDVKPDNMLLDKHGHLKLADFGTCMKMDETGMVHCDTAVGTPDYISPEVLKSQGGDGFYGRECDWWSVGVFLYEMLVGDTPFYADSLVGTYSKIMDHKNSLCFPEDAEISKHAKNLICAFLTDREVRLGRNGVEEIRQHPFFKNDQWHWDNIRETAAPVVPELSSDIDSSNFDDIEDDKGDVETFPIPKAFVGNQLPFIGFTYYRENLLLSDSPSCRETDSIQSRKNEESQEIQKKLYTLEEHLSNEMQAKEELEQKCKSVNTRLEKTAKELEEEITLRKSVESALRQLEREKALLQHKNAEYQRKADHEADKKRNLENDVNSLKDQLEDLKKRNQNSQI
List of pIC50 values.
Value format note: pIC50 is -log10 of concentration (mol/L); just state the number.

[[record]]
substance_smiles = "CN1C(=O)[C@@H](Cc2ccc(-c3ccncc3)cc2)NC(=O)c2cc(Cl)ccc21"
measured_result = 5.96


// below: pIC50 requested for another molecule
Observed pIC50 on ROCK-II (h, amino acids 11-552) (Homo sapiens (Human)), entry "CN1C(=O)[C@@H](Cc2ccc(-c3ccncc3)cc2)NC(=O)c2ccc(Cl)cc21" , equals 6.10

* * *

Parameter IC50, tested on ROCK-I (h, amino acids 17-535) (Homo sapiens (Human), UniProt Q13464), listed per item.
Sequence (Q13464 17-535): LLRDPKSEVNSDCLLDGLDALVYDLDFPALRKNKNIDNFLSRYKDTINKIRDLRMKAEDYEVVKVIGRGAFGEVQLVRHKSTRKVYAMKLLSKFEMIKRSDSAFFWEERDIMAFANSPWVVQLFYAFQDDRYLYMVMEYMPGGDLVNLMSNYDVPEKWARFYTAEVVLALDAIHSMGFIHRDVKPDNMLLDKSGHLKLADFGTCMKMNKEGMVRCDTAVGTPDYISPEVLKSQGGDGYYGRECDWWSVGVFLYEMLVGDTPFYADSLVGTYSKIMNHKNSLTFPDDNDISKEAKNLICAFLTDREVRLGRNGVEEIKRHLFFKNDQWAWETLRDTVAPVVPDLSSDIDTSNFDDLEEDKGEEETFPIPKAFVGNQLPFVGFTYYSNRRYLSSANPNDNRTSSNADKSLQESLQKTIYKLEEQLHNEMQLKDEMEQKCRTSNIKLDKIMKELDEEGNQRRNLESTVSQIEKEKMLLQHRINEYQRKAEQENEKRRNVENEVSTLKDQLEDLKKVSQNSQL

Here "CN1C(=O)[C@@H](Cc2ccc(-c3ccncc3)cc2)NC(=O)c2ccc(Cl)cc21" was tested on ROCK-I (h, amino acids 17-535) (Homo sapiens (Human), UniProt Q13464), and its IC50 came to > 10 µM

Result for "C[C@@]1(Cc2ccc(-c3ccncc3)cc2)NC(=O)c2cc(Cl)ccc2NC1=O" , tested on ROCK-I (h, amino acids 17-535) (Homo sapiens (Human), UniProt Q13464), IC50: > 10 µM
